measured on: T1, recombinant human HER2 extracellular domain protein (human, UniProt P04626 23-652)
T1 construct: range 23-652; Range is printed for the immunogen/panning protein; also called ErbB2; recombinant HER2 protein
assay notes: BLI, Protein A capture
quantity: koff (s⁻¹)
I only need the number, in s⁻¹, no unit after it.

// below: answered binders
| binder | recorded measurement |
| --- | --- |
| Hu2117HK-Mu03 (Fc fusion, scFv-hIgG1 Fc; not shown: human IgG1 Fc) scFv: EVQLVESGGGLVQPGGSLRLSCAASGFTYSSYGMSWVRQAPGKGLEWVASISGGGSYTKYPDSVKGRFTISRDNSKNTLYLQMNSLRAEDTAVYYCARDYAGFFDVWGQGTLVTVSSGGGGSGGGGSGGGGSDVQMTQSPSSLSASVGDRVTITCRSSQSLVHSNGNTYLHWYQQKPGKAPKLLIYKVSNRFSGVPSRFSGSGSGTDFTLTISSLQPEDFATYFCSQSTHVPYTFGQGTKVEIK | 0.00071 |
| Hu2117HK-Mu13 (Fc fusion, scFv-hIgG1 Fc; also called Hu2117HK-Mul3; not shown: human IgG1 Fc) scFv: EVQLVESGGGLVQPGGSLRLSCAASGFTYSSYGMSWVRQAPGKGLEWVASISGGGSYTKYPDSVKGRFTISRDNSKNTLYLQMNSLRAEDTAVYYCARDYAGFFDVWGQGTLVTVSSGGGGSGGGGSGGGGSDIQMTQSPSSLSASVGDRVTITCRSSQSLVHSNGNTYLHWYQQKPGKAPKLLIYKVSNRFSGVPSRFSGSGSGTDFTLTISSLQPEDFATYYCSQSTHVPYTFGQGTKVEIK | 0.000484 |

INPUT: Param item = Hu2117HK-Mu04 (Fc fusion, scFv-hIgG1 Fc; not shown: human IgG1 Fc) scFv: EVQLVESGGGLVQPGGSLRLSCAASGFTYSSYGMSWVRQAPGKGLEWVASISGGGSYTKYPDSVKGRFTISRDNSKNTLYLQMNSLRAEDTAVYYCARDYAGFFDVWGQGTLVTVSSGGGGSGGGGSGGGGSDIQLTQSPSSLSASVGDRVTITCRSSQSLVHSNGNTYLHWYQQKPGKAPKLLIYKVSNRFSGVPSRFSGSGSGTDFTLTISSLQPEDFATYFCSQSTHVPYTFGQGTKVEIK ; retrieve measured koff.
OUTPUT: 0.000895

INPUT: Param item = Hu2117HK-Mu23 (Fc fusion, scFv-hIgG1 Fc; not shown: human IgG1 Fc) scFv: EVQLVESGGGLVQPGGSLRLSCAASGFTYSSYGMSWVRQAPGKGLEWVASISGGGSYTKYPDSVKGRFTISRDNSKNTLYLQMNSLRAEDTAVYYCARDYAGFFDVWGQGTLVTVSSGGGGSGGGGSGGGGSDIQMTQSPSSLSASVGDRVTITCRSSQSLVHSNANTYLHWYQQKPGKAPKLLIYKVSNRFSGVPSRFSGSGSGTDFTLTISSLQPEDFATYFCSQSTHVPYTFGQGTKVEIK ; retrieve measured koff.
OUTPUT: 0.000542

INPUT: Param item = Hu2117HK-Mu12 (Fc fusion, scFv-hIgG1 Fc; not shown: human IgG1 Fc) scFv: EVQLVESGGGLVQPGGSLRLSCAASGFTYSSYGMSWVRQAPGKGLEWVASISGGGSYTKYPDSVKGRFTISRDNSKNTLYLQMNSLRAEDTAVYYCARDYAGFFDVWGQGTLVTVSSGGGGSGGGGSGGGGSDIQMTQSPSSLSASVGDRVTITCRSSQSLVHSNGNTYLHWYQQKPGKAPKLLIYKVSNRPSGVPSRFSGSGSGTDFTLTISSLQPEDFATYFCSQSTHVPYTFGQGTKVEIK ; retrieve measured koff.
OUTPUT: 0.000453
